- subjectOfTest: GlcNAc(b1-3)[GlcNAc(b1-6)]GalNAc
- assayProtocol: glycan array binding signal (z-score within array); higher = stronger binding
- conditionLabel: glycan notation: IUPAC condensed, linker removed
Many of the other results were omitted from the sample, so the strongest signals are more common in it than they were.
metric: glycan array binding signal (z-score)

Query ArathEULS3 (Arabidopsis thaliana), Q945P1 (protein) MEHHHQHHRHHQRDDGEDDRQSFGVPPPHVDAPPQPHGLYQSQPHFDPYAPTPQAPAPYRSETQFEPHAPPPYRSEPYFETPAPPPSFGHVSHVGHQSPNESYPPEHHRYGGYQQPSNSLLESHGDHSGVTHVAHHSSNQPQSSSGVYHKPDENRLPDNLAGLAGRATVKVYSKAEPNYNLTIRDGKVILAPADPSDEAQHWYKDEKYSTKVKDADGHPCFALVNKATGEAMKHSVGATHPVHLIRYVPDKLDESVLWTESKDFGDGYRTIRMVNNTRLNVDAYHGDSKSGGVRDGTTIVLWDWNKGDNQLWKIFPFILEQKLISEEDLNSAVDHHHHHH yields glycan array binding signal (z-score) of -0.203

Source listed as the supplement of paper PMC8728848.
